Recorded values, source PubChem BioAssay (NCI).

test system: NCI-H23 lung; assay: NCI tumour cell line growth inhibition, 48 h
molecules and their reported TGI
PROPERTY LABEL: TGI

                                    molecule  test_result
 0  CCSc1ccc([C@@H]2[C@@H](N)C(=O)N2c2cc(OC)c(OC)c(OC)c2)cc1     > 100 µM
 1  CC(=O)N1C(Nc2cccc3nc(C)ccc23)CCN1c1ccccc1 (centres undefined)      > 10 µM
 2  O=C1O[C@H]2C3C4CCC(C4[C@@H]2I)[C@H]13 (some centres undefined)     > 100 µM
 3  O=C1CC(c2ccsc2)c2snc(-c3ccc(Cl)cc3)c2N1 (centres undefined)     > 100 µM
 4  CCn1c(=O)c2c3ccc(OC)cc3[nH]c2c2ccc(OC)cc21     > 100 µM
 5  Cc1cn([C@@H]2C[C@H](CO)[C@@H]2O)c(=O)[nH]c1=O     > 100 µM
 6            O=S1(=O)OCCCOS(=O)(=O)C1(Br)Br     > 100 µM
 7  O=C(Oc1ccccc1Cl)c1ccccc1Nc1cccc(C(F)(F)F)c1      73.7 µM
 8  CC1=CC(=O)/C(=C/n2c(=S)[nH]c3cc(C)ccc32)C(=O)O1     > 100 µM
 9  O=C1CC(C(COCc2ccccc2)OCc2ccccc2)CC(=O)N1 (centres undefined)     > 100 µM
10  COc1ccc(N=Nc2c(-c3ccccc3)nn(C(=O)CC(=O)Nc3ccccc3Cl)c2-c2ccccc2)cc1     > 100 µM
11  O=C(Oc1ccc2c(-c3ccccc3)c(C(=O)Nc3ccc(Cl)cc3)c(=O)oc2c1)c1ccccc1     > 100 µM
12   O=c1c2cc(I)ccc2nc(SCc2nnco2)n1Cc1ccccc1     > 100 µM
13              O=C1C=C(O)c2c(O)ccc(O)c2C1=O     > 100 µM
14  CCOC(OCC)C(CC)[Se]c1ccccc1 (centres undefined)      73.9 µM
15  CC[C@H]1CN(C)[C@H]2Cc3c([nH]c4ccccc34)C(=O)C[C@H]1C2C(=O)OC (some centres undefined)     > 100 µM
16  O=C1CCC2(c3ccc(Cl)cc3)Nc3ncncc3N12 (centres undefined)      > 10 µM
17                             NCCS(=O)(=O)O     > 100 µM
18  CCCCOc1ccc2c(c1)CC[C@@H]1[C@@H]2CC[C@]2(C)C(=O)N(CCCC)C(=O)C[C@@H]12     > 100 µM
19  CC(=O)c1ccc2c3c1O[C@H]1c4[nH]c5ccccc5c4C[C@@]4(O)[C@@H](C2)N(CC2CC2)CC[C@]314      48.1 µM
20  CC(C)=CCC[C@@H](C)C1=CC(=O)C(C)=C(O)C1=O      21.1 µM
21  O=C(NNS(=O)(=O)c1ccccc1)c1csc(NC(=S)NC2CCCCC2)n1     > 100 µM
22  O=C(CC(c1ccccc1)C(C(=O)c1ccncc1)C(CC(=O)c1ccncc1)c1ccccc1)c1ccncc1 (centres undefined)     > 100 µM
23  O=C(CSCC(=O)N/N=C\c1ccccc1F)N/N=C\c1ccccc1F     > 100 µM
24  Cc1ccc(N=C2SC(=NN(C)C)SC2=Nc2ccc(C)cc2)cc1     > 100 µM
25  CN(C)c1ccc(Nc2c3ccccc3nc3cc(NC(=O)CCN4CCCC4)ccc23)cc1      1.35 µM
26  CN(C)CC1CCCCCC(Br)C1=O (centres undefined)      29.6 µM
27  Fc1cccc(Cl)c1Cn1c(-c2c(F)cccc2Cl)nc2ccccc21     > 100 µM
28             O=C1CCCC(O)=C1SC1=C(O)CCCC1=O     > 100 µM
29  NC(=O)c1sc(-n2cnc3ccc(C(F)(F)F)cc32)cc1OCc1ccccc1Br      > 25 µM
30             COc1cc2cnc(-c3ccccc3)cc2cc1OC      56.7 µM
31               N#CCc1nc2cc(C(F)(F)F)ccc2s1      94.8 µM
32     Cc1cc2oc3c(ccc(=O)n3C)c(=O)c2c(C)c1Cl     > 100 µM
33  CCOC(=O)Cn1c(-c2nonc2NC(=O)c2ccccc2F)nc2ccccc21     > 100 µM
34    O=C1c2cccnc2-c2nccc3c2c1nc1ccc(Br)cc13      0.12 µM
35  COc1cc(S(=O)(=O)Nc2ccc(-c3csc(N4C(=O)C(C)SC4c4ccccc4)n3)cc2)ccc1Cl (centres undefined)     > 100 µM
36  CC(C)C1=C(Cc2ccccc2)C(=O)O/C1=C\c1ccc(O)c(Cl)c1      25.8 µM
37  Cc1cn([C@H]2C[C@H](O)[C@@H](CO)O2)c(=O)nc1N     > 100 µM
38  COc1ccc(N2N=NN(C(C)C)/C2=C(/Cl)c2nnnn2-c2ccc(OC)cc2)cc1        33 µM
39          COC1=CC(=O)c2nc3ccccc3c3ccnc1c23        16 µM
40         CC(=O)OCCOCNC(=S)N/N=C(\C)c1cccs1     > 100 µM
41  CCOC(=O)C(NC(=O)CC)(Nc1ccc(S(=O)(=O)Nc2ccc(OC)nn2)cc1)C(F)(F)F (centres undefined)     > 100 µM
42  COc1cc2[nH]c(=O)c3cc(C)cc4c(Cl)nc(c1OC)c2c43     > 100 µM
43  O=C1/C(=C/c2ccc(Cl)cc2)CCC1CN1CCOCC1 (centres undefined)      20.9 µM
